Where do these numbers come from? They come from ChEMBL document CHEMBL1141574.

- System: L1210
- testMethodNotes: Cytotoxicity against mouse L1210 cells after 24 hrs in presence of 100 uM spermidine
- Format: functional, cell-based
- experimentalConditions: L1210, 24 h
pIC50: −log10 of the molar value.
quantity: pIC50

smilesStructure: Cl.Cl.NCCCCNCc1c2ccccc2cc2ccccc12
quantity: pIC50
obsValue: 5.16

* * *

- Test system: polyamine transporter (PAT)
- testMethodNotes: Ratio of IC50 for PAT deficient CHO-MG cells to IC50 for PAT active CHO cells
- Format: cell-based, Cricetulus griseus
- experimentalConditions: chinese hamster, PAT-deficient CHO-MG cells and PAT-active CHO cells; read-out: Ratio IC50
quantity: selectivity ratio

compound: NCCCCNCCCCNCc1ccc(CNCCCCNCCCCN)cc1
experimentalSystem: polyamine transporter (PAT)
sign: =
obsValue: 677
--
compound: NCCCNCCCCNCc1ccc(N(CCCl)CCCl)cc1
experimentalSystem: polyamine transporter (PAT)
sign: =
obsValue: 1
--
compound: NCCCCNCCCNCc1ccc(N(CCCl)CCCl)cc1
experimentalSystem: polyamine transporter (PAT)
sign: =
obsValue: 1
--
compound: Cl.NCCCCNCCCCNCc1c2ccccc2c(CNCCCCNCCCCN)c2ccccc12
experimentalSystem: polyamine transporter (PAT)
sign: >
obsValue: 2220
--
compound: NCCCCNCCCCNCc1ccc(CNCCCCNCCCCN)c2ccccc12
experimentalSystem: polyamine transporter (PAT)
sign: >
obsValue: 833
--
compound: NCCCCNCCCCNCc1ccc(N(CCCl)CCCl)cc1
experimentalSystem: polyamine transporter (PAT)
sign: =
obsValue: 1
--
compound: Cl.NCCCCNCCCCNCc1c2ccccc2cc2ccccc12
experimentalSystem: polyamine transporter (PAT)
sign: =
obsValue: 148
--
compound: NCCCCNCCCCNCc1cccc2ccccc12
experimentalSystem: polyamine transporter (PAT)
sign: >
obsValue: 164
--
compound: O=C(O)CCCc1ccc(N(CCCl)CCCl)cc1 [CHLORAMBUCIL]
experimentalSystem: polyamine transporter (PAT)
sign: =
obsValue: 1.32
--
compound: Cl.Cl.NCCCCNCc1c2ccccc2cc2ccccc12
experimentalSystem: polyamine transporter (PAT)
sign: =
obsValue: 1
